Readings of growth inhibition for the listed compounds
# TEST METHOD NOTES: NCI Yeast Anticancer Drug Screen. Data for the rad50 strain (AID 155);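 also: 0% = growth of vehicle-only cultures of the same strain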
# APPLIED CONDITIONS: S. cerevisiae rad50 strain growth inhibition; at 5.0 µM (retest, dose inferred, filed as 0.5); active compounds read high
Compounds without any hit were thinned out: in the full panel of roughly 79,000, 15% have a hit. The source made the active and inactive calls. Rule as the data show it: active = growth inhibition above about 70%; inactive = the rest.

COMPOUND	growth inhibition
O=C(O)CC(NC(=O)CP(=O)(O)O)C(=O)O.[NH-]C1CCCCC1[NH-].[Pt+2] (stereo not given)	30% (inactive)

Now let's try a different one.
Looking up "O=c1nc(N2CCCC2)nc(N2CCCC2)s1" , I found its growth inhibition recorded as -16% (inactive)
